- Tested on: 186277-243-T-J2-PDC multi-cell spheroid viability
- experimental.details: Anticancer human tumor 186277-243-T-J2-PDC patient-derived colon adenocarcinoma cell line growth inhibition [PI3K]; active = viability on the fitted dose curve at most 10% of control; inactive = the rest
- experimental.setup: second compound 0.316 µM; first compound 0.0316 µM
Possible outcomes: label 1 for active, label 0 for inactive

# molecule, classification
records = [
    ("CC1(C)CCC(Nc2ncc(C(F)(F)F)c(-c3c[nH]c4c(P(C)(C)=O)c(C#N)ccc34)n2)CN1 (stereo not given) + CC(Nc1ncnc2nc[nH]c12)c1cc2cccc(Cl)c2c(=O)n1-c1ccccc1", "label 0"),
    ("CC(=O)c1c(C)c2cnc(Nc3ccc(N4CCNCC4)cn3)nc2n(C2CCCC2)c1=O + CC(Nc1ncnc2nc[nH]c12)c1cc2cccc(Cl)c2c(=O)n1-c1ccccc1", "label 0"),
    ("Cn1nccc1Nc1nccc(-c2ccn(C(CO)c3ccc(Cl)c(F)c3)c(=O)c2)n1 (stereo not given) + CC(Nc1ncnc2nc[nH]c12)c1cc2cccc(Cl)c2c(=O)n1-c1ccccc1", "label 0"),
    ("C#Cc1c(F)ccc2cc(O)cc(-c3ncc4c(N5CC6CCC(C5)N6)nc(OCC56CCCN5CC(F)C6)nc4c3F)c12 (stereo not given) + Cc1nc(NC(=O)N2CCCC2C(N)=O)sc1-c1ccnc(C(C)(C)C(F)(F)F)c1", "label 0"),
    ("CCCS(=O)(=O)Nc1ccc(F)c(C(=O)c2c[nH]c3ncc(-c4ccc(Cl)cc4)cc23)c1F + COc1c(OCCCN2CCOCC2)ccc2c3n(c(=NC(=O)c4cnc(N)nc4)nc12)CCN3", "label 1"),
    ("CC1(C)CCC(CN2CCN(c3ccc(C(=O)NS(=O)(=O)c4ccc(NCC5CCOCC5)c([N+](=O)[O-])c4)c(Oc4cnc5[nH]ccc5c4)c3)CC2)=C(c2ccc(Cl)cc2)C1 + Cc1nc(NC(=O)N2CCCC2C(N)=O)sc1-c1ccnc(C(C)(C)C(F)(F)F)c1", "label 0"),
    ("C=CC(=O)N1CCN(c2nc(=O)n(-c3c(C)ccnc3C(C)C)c3nc(-c4c(O)cccc4F)c(F)cc23)C(C)C1 (stereo not given) + COc1c(OCCCN2CCOCC2)ccc2c3n(c(=NC(=O)c4cnc(N)nc4)nc12)CCN3", "label 1"),
    ("CC(C)NCC(C(=O)N1CCN(c2ncnc3c2C(C)CC3O)CC1)c1ccc(Cl)cc1 (stereo not given) + CC(Nc1ncnc2nc[nH]c12)c1cc2cccc(Cl)c2c(=O)n1-c1ccccc1", "label 0"),
    ("C=CC(=O)N1CCN(c2nc(=O)n(-c3c(C)ccnc3C(C)C)c3nc(-c4c(O)cccc4F)c(F)cc23)C(C)C1 (stereo not given) + CC(Nc1ccc2c(c1)OCCn1cc(N3C(=O)OCC3C(F)F)nc1-2)C(N)=O", "label 0"),
    ("CCN1CCN(Cc2ccc(Nc3ncc(F)c(-c4cc(F)c5nc(C)n(C(C)C)c5c4)n3)nc2)CC1 + CC(Nc1ncnc2nc[nH]c12)c1cc2cccc(Cl)c2c(=O)n1-c1ccccc1", "label 0"),
]

###

- Tested on: 186277-243-T-J2-PDC multi-cell spheroid viability
- experimental.details: Anticancer human tumor 186277-243-T-J2-PDC cell line growth inhibition [PI3K]; active means viability on the fitted dose curve at most 10% of control; inactive means the rest;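 note: spheroids exposed to compounds for seven days before viability reading; 100% = DMSO vehicle control viability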
- experimental.setup: second compound 0.0316 µM; first compound 0.949 µM
Possible outcomes: true (1) (active), false (0) (inactive)

# compound, classification
rows = [
    ("Cn1cnc2c(F)c(Nc3ccc(Br)cc3Cl)c(C(=O)NOCCO)cc21 + CC(Nc1ncnc2nc[nH]c12)c1cc2cccc(Cl)c2c(=O)n1-c1ccccc1", "false (0)"),
    ("Cn1cnc2c(F)c(Nc3ccc(Br)cc3Cl)c(C(=O)NOCCO)cc21 + Cc1nc(NC(=O)N2CCCC2C(N)=O)sc1-c1ccnc(C(C)(C)C(F)(F)F)c1", "false (0)"),
    ("Cn1cnc2c(F)c(Nc3ccc(Br)cc3Cl)c(C(=O)NOCCO)cc21 + CC(Nc1ccc2c(c1)OCCn1cc(N3C(=O)OCC3C(F)F)nc1-2)C(N)=O", "false (0)"),
    ("Cn1cnc2c(F)c(Nc3ccc(Br)cc3Cl)c(C(=O)NOCCO)cc21 + COc1c(OCCCN2CCOCC2)ccc2c3n(c(=NC(=O)c4cnc(N)nc4)nc12)CCN3", "true (1)"),
]

Where do these numbers come from? They come from PubChem BioAssay AID1963983.
